- system under test: Casein kinase I isoform epsilon (Homo sapiens)
- Sequence (P49674 whole entry, canonical isoform): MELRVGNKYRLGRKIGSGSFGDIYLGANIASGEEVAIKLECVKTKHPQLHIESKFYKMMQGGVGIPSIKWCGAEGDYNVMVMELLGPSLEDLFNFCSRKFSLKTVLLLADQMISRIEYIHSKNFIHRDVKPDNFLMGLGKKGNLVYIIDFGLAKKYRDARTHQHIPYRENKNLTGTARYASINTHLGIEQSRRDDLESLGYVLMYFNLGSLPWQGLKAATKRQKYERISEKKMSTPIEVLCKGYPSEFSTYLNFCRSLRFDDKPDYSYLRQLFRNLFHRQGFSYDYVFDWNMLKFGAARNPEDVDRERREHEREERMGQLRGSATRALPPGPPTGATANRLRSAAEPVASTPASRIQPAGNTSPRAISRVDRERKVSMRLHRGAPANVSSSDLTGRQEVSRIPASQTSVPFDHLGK
- test name: Inhibition of CK1 epsilon (unknown origin) using PLSRTLpSVASLPGL as substrate after 85 mins by microplate reader analysis
reported property: IC50 (nM)

Look over these answered cases.
[
  {
    "compound": "Cn1cc(-c2ccnc(C3COCCN3)c2)c(-c2ccc(F)cc2)n1 (single isomer, unassigned; (-))",
    "reading unit": "nM",
    "IC50": 28.2
  },
  {
    "compound": "Cn1cc(-c2ccnc3c2OCCNC3)c(-c2ccc(F)cc2)n1",
    "reading unit": "nM",
    "IC50": 27
  },
  {
    "compound": "CNCc1cc(-c2cn(C)nc2-c2ccc(F)cc2)ccn1",
    "reading unit": "nM",
    "IC50": 67.2
  }
]

P = Cn1cc(-c2ccncc2)c(-c2ccc(F)cc2)n1
Q = Cn1cc(-c2ccnc(CO)c2)c(-c2ccc(F)cc2)n1
Exercise: Lab log: flag the item ( P or Q ) with the smaller IC50 figure. To answer, give the label that identifies your chosen option.
Solution: Q
(Q: 81.6 nM, P: 305 nM)

---

- system under test: Casein kinase I isoform delta (Homo sapiens)
- Sequence (P48730 whole entry, canonical isoform): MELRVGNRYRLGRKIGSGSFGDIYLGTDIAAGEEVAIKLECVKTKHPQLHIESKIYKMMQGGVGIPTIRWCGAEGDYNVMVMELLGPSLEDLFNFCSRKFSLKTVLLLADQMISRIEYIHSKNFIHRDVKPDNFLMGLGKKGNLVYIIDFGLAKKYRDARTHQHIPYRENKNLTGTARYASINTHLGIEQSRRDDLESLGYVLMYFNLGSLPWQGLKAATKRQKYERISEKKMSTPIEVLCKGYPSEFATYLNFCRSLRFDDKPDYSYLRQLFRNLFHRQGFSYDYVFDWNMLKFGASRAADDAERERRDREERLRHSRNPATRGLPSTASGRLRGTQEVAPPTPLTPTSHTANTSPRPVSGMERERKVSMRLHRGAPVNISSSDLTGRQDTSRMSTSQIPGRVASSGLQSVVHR
- test name: Inhibition of human CK1 delta transfected in african green monkey cos7 cells after overnight incubation by whole cell assay
- Format: cell-based, COS-7
reported property: IC50 (µM)

Consider the reported IC50 for these molecules:
[
  {
    "molecule": "CNCc1cc(-c2cn(C)nc2-c2ccc(F)cc2)ccn1",
    "system under test": "Casein kinase I isoform delta (Homo sapiens)",
    "reported property": "IC50",
    "reading unit": "µM",
    "reported result": 0.0638
  },
  {
    "molecule": "Cn1cc(-c2ccnc(CO)c2)c(-c2ccc(F)cc2)n1",
    "system under test": "Casein kinase I isoform delta (Homo sapiens)",
    "reported property": "IC50",
    "reading unit": "µM",
    "reported result": 0.237
  }
]

I = Cn1cc(-c2ccnc(C3COCCN3)c2)c(-c2ccc(F)cc2)n1 (single isomer, unassigned; (-))
II = Cn1cc(-c2ccncc2)c(-c2ccc(F)cc2)n1
Exercise: Kindly identify which of I and II has the larger recorded IC50 value. Please respond with the label that marks your chosen entry.
Solution: II
(II: 0.545 µM, I: 0.09 µM)

---

- system under test: MAP kinase p38 (Homo sapiens, UniProt O15264+Q15759+Q16539+P53778)
- test name: Inhibition of p38 (unknown origin)
- Type: protein assay
reported property: IC50 (nM)

[
  {
    "structure string": "Nc1nccc(-c2c(-c3ccc(F)cc3)ncn2C2CCCCC2)n1",
    "system under test": "MAP kinase p38 (Homo sapiens, UniProt O15264+Q15759+Q16539+P53778)",
    "reading unit": "nM",
    "IC50": 39.2
  },
  {
    "structure string": "Cn1cc(-c2ccnc3c2OCCNC3)c(-c2ccc(F)cc2)n1",
    "system under test": "MAP kinase p38 (Homo sapiens, UniProt O15264+Q15759+Q16539+P53778)",
    "reading unit": "nM",
    "IC50": 654
  }
]

A = CNCc1cc(-c2cn(C)nc2-c2ccc(F)cc2)ccn1
B = Cn1cc(-c2ccncc2)c(-c2ccc(F)cc2)n1
Exercise: Please indicate which item has the smaller measured IC50: A versus B Respond using the label that marks the chosen record.
Solution: B

---

- system under test: hERG (KCNH2) (Homo sapiens, UniProt Q12809)
- test name: Displacement of [3H]dofetilide from human ERG channel at 10 uM
- conditions: probe [3H]dofetilide
reported property: inhibition at 10 µM (%)
Report the figure in % without appending any unit label.

Exercise: Name the recorded inhibition at 10 µM for Cn1cc(-c2ccnc(CO)c2)c(-c2ccc(F)cc2)n1 .
Solution: 6

---

- Test system: hERG (KCNH2)
- test name: Therapeutic index, ratio of EC50 for human ERG channel to fCmax in mouse plasma
- Format: cell-free
- conditions: read-out: TI
reported property: selectivity ratio
No unit in the answer, only the number.

Exercise: Value wanted: selectivity ratio (hERG (KCNH2)) of entry Cn1cc(-c2ccnc3c2OCCNC3)c(-c2ccc(F)cc2)n1
Solution: 3

---

- system under test: Voltage-gated inwardly rectifying potassium channel KCNH2 (Homo sapiens, UniProt Q12809)
- Sequence (Q12809 whole entry): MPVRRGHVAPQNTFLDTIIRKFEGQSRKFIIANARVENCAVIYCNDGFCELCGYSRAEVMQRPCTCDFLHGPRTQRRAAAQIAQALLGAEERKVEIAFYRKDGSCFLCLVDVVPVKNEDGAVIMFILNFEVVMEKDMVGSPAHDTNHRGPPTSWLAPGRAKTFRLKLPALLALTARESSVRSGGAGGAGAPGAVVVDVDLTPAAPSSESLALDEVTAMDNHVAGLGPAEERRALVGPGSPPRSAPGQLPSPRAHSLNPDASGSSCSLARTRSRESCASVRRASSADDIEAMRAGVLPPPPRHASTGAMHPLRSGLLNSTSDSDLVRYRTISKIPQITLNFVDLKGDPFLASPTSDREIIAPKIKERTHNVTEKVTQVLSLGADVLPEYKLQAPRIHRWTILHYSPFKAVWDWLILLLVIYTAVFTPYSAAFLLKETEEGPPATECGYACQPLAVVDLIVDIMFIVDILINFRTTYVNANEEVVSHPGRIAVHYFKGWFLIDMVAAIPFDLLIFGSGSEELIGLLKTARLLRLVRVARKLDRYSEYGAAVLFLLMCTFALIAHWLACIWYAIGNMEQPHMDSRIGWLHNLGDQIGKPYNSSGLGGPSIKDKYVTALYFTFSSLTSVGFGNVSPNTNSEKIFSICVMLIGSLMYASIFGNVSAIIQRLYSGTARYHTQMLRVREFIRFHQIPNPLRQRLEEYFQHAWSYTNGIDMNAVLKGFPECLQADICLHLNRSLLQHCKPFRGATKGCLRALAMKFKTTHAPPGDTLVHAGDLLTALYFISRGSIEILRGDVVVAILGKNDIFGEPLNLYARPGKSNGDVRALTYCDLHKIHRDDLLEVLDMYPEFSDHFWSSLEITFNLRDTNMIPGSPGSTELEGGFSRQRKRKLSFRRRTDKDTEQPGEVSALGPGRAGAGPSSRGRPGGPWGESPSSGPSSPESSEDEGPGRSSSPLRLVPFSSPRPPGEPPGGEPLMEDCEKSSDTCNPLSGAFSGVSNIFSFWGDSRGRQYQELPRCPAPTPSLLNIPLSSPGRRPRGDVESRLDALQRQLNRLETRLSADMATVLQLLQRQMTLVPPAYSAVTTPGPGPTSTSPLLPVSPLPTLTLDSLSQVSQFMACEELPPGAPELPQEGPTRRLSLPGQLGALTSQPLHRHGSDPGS
- test name: Displacement of [3H]dofetilide from human ERG channel
reported property: IC50 (µM)
Form entry: value (µM) — number only.

Exercise: Using the record for Cn1cc(-c2ccnc(C3COCCN3)c2)c(-c2ccc(F)cc2)n1 (single isomer, unassigned; (-)) , report its IC50.
Solution: 25.9
